Source listed as patent US20070213359A1.

# TARGET_OF_ASSAY: Ghrelin receptor (Homo sapiens, UniProt Q92847)
# Sequence (Q92847 whole entry): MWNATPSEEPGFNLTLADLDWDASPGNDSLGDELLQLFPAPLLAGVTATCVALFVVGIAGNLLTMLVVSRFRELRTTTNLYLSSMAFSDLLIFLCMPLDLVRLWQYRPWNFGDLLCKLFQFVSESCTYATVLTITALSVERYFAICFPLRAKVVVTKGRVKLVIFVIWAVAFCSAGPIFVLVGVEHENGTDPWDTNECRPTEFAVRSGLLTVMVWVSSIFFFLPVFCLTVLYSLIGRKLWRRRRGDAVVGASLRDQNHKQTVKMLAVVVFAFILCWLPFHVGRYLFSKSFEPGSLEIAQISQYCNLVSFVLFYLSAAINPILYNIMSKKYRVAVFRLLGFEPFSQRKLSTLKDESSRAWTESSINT
# TEST_SUMMARY: Receptor Selection and Amplification Technology (R-SAT) assay
# Format: cell-based
# Parameters: expressed in transfected cells; host or cells: NIH3T3
# MEASUREMENT_PARAMETERS: […]; '—' not defined (nd used separately); read-out: RSAT pIC50 (converted)
OBSERVATION_TYPE: IC50 (nM)
Numbers only; they are read as nM.

Quick one: IC50 for COc1cccc2c(C(=O)Cc3ccccc3)cn(CCCN3CCCC(Cc4ccccc4Cl)C3)c12 (stereo not shown) ?
25.1

Can you share its IC50? I mean this compound: `CC(C)CC(=O)c1cn(CCCN2CCC(c3nc4c(s3)C=CCC4)CC2)c2ccccc12`
126

GET /values?readout=IC50&item= COc1cccc2c(C(=O)C3CC3)cn(CCCN3C4CCC3CC(CCc3ccccc3)C4)c12 (stereo not shown)
2.51

Find the recorded IC50 belonging to `CCc1cccc2c(C(C)=O)cn(CCCN3CCC(N4C(=O)Cc5ccccc54)CC3)c12` and report it.
100

What IC50 value was documented for this compound, `COc1cccc2c(C(=O)NCc3cccc(Cl)c3)cn(CCCNCCOc3ccccc3)c12` ?
251

I am curious: what IC50 value has been reported for `CCCCC[C@H]1C[C@H]2CC[C@@H](C1)N2CCCn1cc(C(=O)C2CC2)c2cccc(OC)c21` ?
200

I have this compound here, `COc1cccc2c(C(=O)c3ccccc3)cn(CCCN3CCC(c4nc(-c5ccncc5)no4)CC3)c12` , and I need its recorded IC50.
25.1

Name the reported IC50 value associated with the compound `COc1cccc2c(C(=O)NCc3cccc(C)c3)cn(CCCN3CCCN(Cc4ccc(F)cc4)CC3)c12`
15.8

Recorded IC50 of COc1cccc2c(C(=O)NCc3cccc(C)c3)cn(CCCN3C4CCC3CC(CC(=O)c3ccccc3)C4)c12 (stereo not shown) , please.
1.58

Please look up its IC50: `COc1cccc2c(C(=O)NCC(C)C)cn(CCCN3CCN(CCOc4ccccc4)CC3)c12`
126

====

Assign Ki to each entry below.
# TARGET_OF_ASSAY: GHSR1a receptor (Homo sapiens, UniProt Q92847)
# Construct: expressed in transfected cells; host or cells: HEK293 (membranes)
# Sequence (Q92847 whole entry): as above
# TEST_SUMMARY: 125I-Ghrelin binding assay
# MEASUREMENT_PARAMETERS: Binding pKi, displacement of 125I-ghrelin (0.053 nM), membranes of HEK293 cells transfected with GHSR1a; Cheng-Prussoff; '—' not defined
Lab book: enter the figure in nM, no units written.

Entry `CCCCC[C@H]1C[C@H]2CC[C@@H](C1)N2CCCn1cc(C(C)=O)c2ccccc21` , system GHSR1a receptor (Homo sapiens, UniProt Q92847): what Ki was measured?
2510

Please provide the recorded Ki for `COc1cccc2c(C(=O)NCc3cccc(C)c3)cn(CCCNC3Cc4ccccc4C3)c12` , tested on GHSR1a receptor (Homo sapiens, UniProt Q92847).
79.4

Checklist item: Ki tested on GHSR1a receptor (Homo sapiens, UniProt Q92847), entry CC(=O)c1cn(CCCN2C3CCC2CC(CC(=O)c2ccccc2)C3)c2c(Br)cccc12 (stereo not drawn) , value?
100

Reported Ki for GHSR1a receptor (Homo sapiens, UniProt Q92847), given `COc1cccc2c(C(=O)C3CC3)cn(CCCN3CCC(Oc4ccccc4Cl)CC3)c12` ?
3160

Report Ki for COc1cccc2c(C(=O)NCC(C)C)cn(CCCN3C4CCC3CC(CC(=O)c3ccccc3)C4)c12 (stereo not drawn) tested on GHSR1a receptor (Homo sapiens, UniProt Q92847).
50.1

Value wanted: Ki (GHSR1a receptor (Homo sapiens, UniProt Q92847)) of entry `CC(=O)c1cn(CCCN2CCC(c3nc4ccccc4s3)CC2)c2c(Cl)cccc12`
398

====

# TARGET_OF_ASSAY: GHSR1a receptor (Homo sapiens)
# Construct: expressed in transfected cells; host or cells: HEK293 (membranes)
# TEST_SUMMARY: 125I-Ghrelin binding assay
# MEASUREMENT_PARAMETERS: displacement of 125I-ghrelin (0.053 nM), membranes of HEK293 cells transfected with GHSR1a; Cheng-Prussoff; '—' not defined; read-out: Binding pKi (converted)
Exercise: for every item that follows, state its recorded Ki.
Output spec: scalar in µM, unitless text.

Would you mind telling me what Ki value was observed for COc1cccc2c(C(=O)c3ccccc3)cn(CCCN3C4CCC3CC(CC(=O)c3ccccc3)C4)c12 (stereo not drawn) ?
0.1

Bench note: what Ki did `CC(=O)c1c(C)n(CCCN2CCC(CCOc3ccc(Cl)cc3)CC2)c2c(Br)cccc12` show?
0.631

What does the record list as Ki for O=C(NCc1cccc(Cl)c1)c1cn(CCCN2CCC(Oc3ccc(F)cc3)CC2)c2ccccc12 [drawing 659] ?
1.58

What Ki value was documented for this molecule, CC(=O)c1cn(CCCN2C3CCC2CC(CC(=O)c2ccccc2)C3)c2c(C)cccc12 (stereo not drawn) ?
0.2

# input molecule: `CC(=O)c1cn(CCCN2CCC(Oc3ccc(Cl)cc3)CC2)c2ccccc12` ; wanted: its Ki
2.51

Quick one: Ki for COc1cccc2c(C(=O)Cc3ccccc3)cn(CCCN3C4CCC3CC(CC(=O)c3ccc(Cl)cc3)C4)c12 (stereo not drawn) ?
0.0316

// Ki lookup, key: CC(=O)c1cn(CCCN2C3CCC2CC(Oc2ccc(F)cc2)C3)c2c(C#N)cccc12 (stereo not drawn)
0.1

Which value of Ki has been reported for COc1cccc2c(C#N)cn(CCCN3C4CCC3CC(CCc3ccccc3)C4)c12 (stereo not drawn) in the records?
0.0251

# input molecule: `COc1cccc2c(C(=O)c3ccccc3)cn(CCCN3CCC(Oc4ccc(Cl)cc4)CC3)c12` ; wanted: its Ki
0.1

Returns the measured Ki for the input molecule. Input: CC(=O)c1cn(CCCN2C3CCC2CC(Oc2ccc(Cl)cc2)C3)c2c(Cl)cccc12 (stereo not drawn)
1

Ki for COc1cccc2c(C(=O)Cc3ccccc3)cn(CCCN3C4CCC3CC(Oc3ccc(F)cc3)C4)c12 (stereo not drawn) ?
0.251

Recorded Ki of COc1cccc2c(C(C)=O)cn(CC(C)CN3CCC(Oc4cccc(Cl)c4)CC3)c12 (stereo not drawn) , please.
0.794

Suppose we examine the molecule COc1cccc2c(C(=O)c3ccccc3)cn(CCCN3C4CCC3CC(Oc3ccc(Cl)cc3)C4)c12 (stereo not drawn) ; what Ki value has been reported?
0.1

Form field: reported Ki of `COc1cccc2c(C(=O)NCC(C)C)cn(CCCN3CCC(Oc4ccc(Cl)cc4)CC3)c12`
0.0501

What does the record list as Ki for COc1ccccc1C1CCN(CCCn2cc(C(C)=O)c3ccccc32)CC1 [drawing 576] ?
1.26

====

# TARGET_OF_ASSAY: Ghrelin receptor (Homo sapiens)
# TEST_SUMMARY: Receptor Selection and Amplification Technology (R-SAT) assay
# Format: cell-based
# Design: expressed in transfected cells; host or cells: NIH3T3
# MEASUREMENT_PARAMETERS: percent inhibition at saturating ligand, normalized to reference ligand Substance P analog = 100%; read-out: RSAT Eff(%)
OBSERVATION_TYPE: Emax (%)
Hi! Could you send only the number? It should be in %, unit omitted.

Could you share which Emax value was measured for COc1cccc2c(C(C)=O)cn(CC(C)CN3CCN(c4ncc(C(F)(F)F)cc4Cl)CC3)c12 (stereo not shown) ?
95

Need Emax of `O=C(c1cn(CCCN2CCCN(Cc3ccccc3Cl)CC2)c2ncccc12)C(F)(F)F` , thanks.
85

Param item = `COc1ccccc1C1CCN(CCCn2cc(C(C)=O)c3cccc(Br)c32)CC1` ; retrieve measured Emax.
109

Look up Emax: COc1cccc2c(C(C)=O)cn(CCCN3CCN(C(C)c4ccccc4)CC3)c12 (stereo not shown)
114

Look up Emax for this molecule: `CC(=O)c1cn(CCCNC2Cc3ccccc3C2)c2c(Cl)cccc12`
96

For the molecule `CC(=O)c1cn(CCCN2CCN(Cc3ccc(Cl)cc3Cl)CC2)c2c(C#N)cccc12` , what Emax is on record?
92

For `CC(=O)c1cn(CCCN2CCC(Oc3ccc(Cl)cc3)CC2)c2cc(Br)ccc12` , what is its reported Emax?
74

For the molecule CC(CN1CCC2(CC1)CC(=O)c1ccccc1O2)Cn1cc(C(=O)C(F)(F)F)c2cccnc21 (stereo not shown) , what Emax is on record?
26

Record request: Emax value, item `CC(=O)c1cn(CCCN2CCCN(Cc3ccccc3Cl)CC2)c2c(Cl)cccc12`
92

Entry under review: CC(=O)c1cn(CCN2C3CCC2CC(O)(c2ccc(F)cc2)C3)c2ccccc12 (stereo not shown) . Reported Emax?
-11

====

# TARGET_OF_ASSAY: Ghrelin receptor (Homo sapiens, UniProt Q92847)
# TEST_SUMMARY: Receptor Selection and Amplification Technology (R-SAT) assay
# Type: cell-based
# Parameters: expressed in transfected cells; host or cells: NIH3T3
# MEASUREMENT_PARAMETERS: negative logarithm of ligand concentration causing 50% inhibition of constitutive receptor response; transfected NIH3T3 cells; '—' not defined (nd used separately); read-out: RSAT pIC50 (converted)
OBSERVATION_TYPE: IC50 (µM)
Just the number in µM, nothing appended.

Look up IC50 with Ghrelin receptor (Homo sapiens, UniProt Q92847) for this compound: O=C(c1cn(CCCN2C3CCC2CC(OCC2CC2)C3)c2ccccc12)C(F)(F)F (centres unmarked)
0.501

Quick check: IC50 on Ghrelin receptor (Homo sapiens, UniProt Q92847), item CC(=O)c1cn(CC(C)CN2CCC(Oc3ccc(F)cc3)CC2)c2ccccc12 (centres unmarked) ?
0.501

Give Ghrelin receptor (Homo sapiens, UniProt Q92847) IC50 for `CCCCC1CCN(CCCn2cc(C(=O)C(F)(F)F)c3ccccc32)CC1`
0.501

Give Ghrelin receptor (Homo sapiens, UniProt Q92847) IC50 for COc1ccc2c(c1)c(C(C)=O)cn2CCCN1CCN(C(C)c2ccccc2)CC1 (centres unmarked)
0.501

// lookup IC50 | system=Ghrelin receptor (Homo sapiens, UniProt Q92847) | key= `COc1ccc2c(C(C)=O)cn(CCCN3CCC(C(=O)c4ccccc4)CC3)c2c1`
0.794

Ghrelin receptor (Homo sapiens, UniProt Q92847) / IC50 / `CC(=O)c1cn(CCCNCCOc2ccccc2)c2c(Cl)cccc12` : value?
0.1

Request: IC50, test system Ghrelin receptor (Homo sapiens, UniProt Q92847), entry `CCCCC1CCN(CCCn2cc(C(C)=O)c3cccc(C)c32)CC1`
0.00794

API: value(readout=IC50, system=Ghrelin receptor (Homo sapiens, UniProt Q92847)) for record `CC(=O)c1cn(CCCN2CCCN(Cc3ccc(F)cc3)CC2)c2c(Cl)cccc12`
0.00794
